These data points were gathered from PubChem BioAssay (EPA / NIEHS).

- test_name: ACEA_ER_80hr: ACEA Biosciences xCELLigence Real-Time Cell Analysis on Estrogen Receptor Agonism for Proliferation (AID 2282667)
- experimental_setup: T47D proliferation, impedance (xCELLigence), 80 h
Results filed as inconclusive are left out. Active and inactive are the calls of the source. Rule for the calls: active = hit-call score of the fitted dose curve at least 0.9, where 1 is the maximum; inconclusive = response in the unintended direction; inactive = score below 0.9.
Outcome codes: 1 = active, -1 = inactive

> print(dat)
                                    compound  assigned.class
 1  C=C(C)CCCC(C)CCO (configuration not stated)              -1
 2                             CCc1cccc(O)c1              -1
 3            CN(C)CCC=C1c2ccccc2CCc2ccccc21               1
 4             C=C(C)C(=O)OCCC[Si](OC)(OC)OC              -1
 5    CCCCCCCCCCOC(=O)c1ccccc1C(=O)OCCCCCCCC              -1
 6  CCCCCC(=O)O[C@]1(C(C)=O)CC[C@H]2[C@@H]3CCC4=CC(=O)CC[C@]4(C)[C@H]3CC[C@@]21C               1
 7                                   NC(N)=S               1
 8                                Cc1ccccc1S              -1
 9  CCC(C)(CCCC(C)C)OC(C)=O (configuration not stated)              -1
10                        Brc1cc(Br)cc(Br)c1              -1
11                               NCCN1CCNCC1               1
12     C=C1CC/C=C(\C)CC[C@@H]2[C@@H]1CC2(C)C              -1
13                  CC/C=C/CCCCCCCCCCOC(C)=O              -1
14                     CC(C)N(c1ccccc1)C(C)C              -1
15                            CCOC(=O)CC(C)C              -1
16                     CC(C)OB(OC(C)C)OC(C)C              -1
17                            NC(=O)c1cnccn1              -1
18       O=[N+]([O-])c1cc(N(CCO)CCO)ccc1NCCO              -1
19                           O=C1OCc2ccccc21              -1
20  CCCCOCC(C)OCC(C)O (configuration not stated)              -1
21      O=c1cc(-c2ccc(O)cc2)oc2cc(O)cc(O)c12               1
22                                     OCCCO              -1
23                    CCCCC/C=C\C=C\C(=O)OCC              -1
24                         CC(=O)CC(=O)N(C)C              -1
25  C=C(C)C(=O)OCCC(F)(F)C(F)(F)C(F)(F)C(F)(F)C(F)(F)C(F)(F)C(F)(F)C(F)(F)F              -1
26      CCCCCCCCSCc1cc(C)c(O)c(CSCCCCCCCC)c1              -1
27                                 C1CCCNCC1              -1
28                CCC(=O)OC/C=C(\C)CCC=C(C)C               1
29                        CCCCCCOc1ccc(O)cc1              -1
30                    c1ccc(OCCOc2ccccc2)cc1              -1
31  CCCCCC1CCC(=O)O1 (configuration not stated)              -1
32                             CC(C)=CC(=O)O               1
